Test: chemical genetic growth profiling, strain panel (AID 1159580);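 also: tested at 20 µM; growth read once vehicle control cultures reached saturation at 30 °C; 1 = growth at the plate median or of vehicle wells; lower values mean less growth of the strain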
Settings: S. cerevisiae deletion strains, growth OD, locus YHR079C, strain IRE1 (second series), hits give low values
Hit rate of the full screen: of about 5,500 compounds, about 2,000 (36%) were called active. Not shown: some 18% with an inconclusive outcome. Some of the results follow.
quantity-measured: normalized growth

>>> measured_result("CCC/C=C1\\OC(=O)C2=C1CCC=C2")
0.987
>>> measured_result("CC12CCC3c4ccc(OCc5ccccc5)cc4CCC3C1C[C@@H](O)[C@@H]2O (stereo not given in full)")
0.0829
>>> measured_result("CN1C[C@H](C(=O)N[C@]2(C)O[C@@]3(O)[C@@H]4CCCN4C(=O)[C@H](Cc4ccccc4)N3C2=O)C[C@@H]2c3cccc4[nH]cc(c34)C[C@H]21")
0.977
>>> measured_result("CC1(C)C(=O)C=C[C@@]2(C)C1C=C[C@]1(C)C2CC[C@@]2(C)[C@H](c3ccoc3)OC(=O)C3OC321 (stereo not given in full)")
0.977
>>> measured_result("CNC(=O)Oc1cccc2c1OC(C)(C)O2")
0.99
>>> measured_result("CC(C)(C)NCC(O)c1cc(Cl)c(N)c(Cl)c1 (stereo not given)")
1
>>> measured_result("CC/C(=C(/CC)c1ccc(O)cc1)c1ccc(O)cc1")
1.01
>>> measured_result("CC(=O)OC1CN2CCC1CC2 (stereo not given)")
0.982
>>> measured_result("NC(=O)NCCCC(N)C(=O)O (stereo not given)")
0.977
>>> measured_result("CC1(C)C2CC(=O)[C@]3(C)C(CC[C@@]4(C)[C@H](c5ccoc5)OC(=O)[C@H]5O[C@]543)[C@@]2(C)C(=O)C[C@H]1O (stereo not given in full)")
1.02

Values compiled from PubChem BioAssay AID1159580.
